runDescription: yeast display, Sf9 membrane polyspecificity reagent, FACS + sequencing; frameworks hold sequencing errors
parameterMeasured: polyreactivity (PSR sort gate)

// below: answered sequences
Request: What value of measured polyreactivity (PSR sort gate) is listed for "QVHLVESGGGLDQAGGSLRLSSASSGRIIVRNAMGCYRQAPGKERELVADISSSGGRTYYADSVKGRFTISRDNAKNTVYLQMNSLKPEDTAVYYCAASSSNNEYDYWGQGTQETVSS" ?
Result: high polyreactivity

Request: Would you kindly share the measured polyreactivity (PSR sort gate) for "QVQLVESGGGLVQAGGSLRISCAPSGSTFYYNAIGWSRQAPGKERELVARISRSGGSTYADSVKGRFTISRDNAKNTVYLQMNSLKPEDTAVYYCNADAYGTPEFTSYAVRYDYWGQGTQVTVSS" ?
Result: low polyreactivity

Request: Name the recorded polyreactivity (PSR sort gate) for "QVQLVESGGGLFQAGGSLRLSCAASGSTFFGYAMGWYRQAPGKERELVAAISSRGGTTNYADSVKGRFTISRDNAKNTVYLQMNSLKPEDNAVYYCNAKDTQEYNRVKYNYWGQGTQVTVSS" .
Result: high polyreactivity

Request: Can you look up the measured polyreactivity (PSR sort gate) of "QVQLVESGGGLVQAGGSLRLSCAASGFTFHSYAMGWYRQAPGKERELVAAISYSGGSTYYADSVKGRFTISRDNAKNTVYLQMHSLKPEDTAVYYCAGLRYIYGYANDYWGQGTQVTVSS" for me?
Result: low polyreactivity

Request: If you can, please state the reported polyreactivity (PSR sort gate) value of "QVQLVESGGGLVQAGGSLRLSCASSGRTFVWNAMGWYRQAPGKERELVAAIDWSGGSTYYADSVKGRFTISRDNAKNTVYLQMNSLKPEDTAVYYCAKEYWYRALWYNYWGQGTQVTVSS" .
Result: high polyreactivity

Request: Data request, read-out polyreactivity (PSR sort gate), for "QVQLVESGGGLVQAGGSLRLSCAASGSIFPYNAMGWYRQAPGKERELVATISSGGSTNYADSVKGRFTISRDNAKNTVYLQMNSLKPEDTAVYDCAADVIVFYYAPNYWGDIGYGYWGQGTQVTVSS"
Result: low polyreactivity

New cases:
Request: Report polyreactivity (PSR sort gate) for "QVQLQESGGGLVQAGGSLRLSCAASGNIFDADIMGWYRQAPGKERELVASITDGGSTNYADSVKGRFTISRDNAKNTLYLQLISLYPDDTGVYYCAAIAYPDIPTYFDYDSDYFYWGQGTQVTVSS" please.
Result: high polyreactivity

Request: Record request: polyreactivity (PSR sort gate) value, item "QVQLVESGGGLVQAGGCLRISFAASGLTFVWYGMGWYRPATGKERELVAAITSVRTTYYADSVKGRFTISRDNAKNSVYLQMTSLKAEDSGFYYCAAQWAGYGDLPWPYSVIVEFYYWGQGSQVTVSS"
Result: low polyreactivity

Request: Please report the recorded polyreactivity (PSR sort gate) for "QVQLVESGGGLVQAGGSLRLSCAASGFIFWDYAMGWYRQAPGKERELVAAISDSGGDTYYADSVKGRFTISRDNAKNTVYFQMNSLKPEDTAVYYCAADVELWVFRGQQYDYWGQGTQVTVSS" .
Result: low polyreactivity

Request: Value lookup for polyreactivity (PSR sort gate); key = "QVQLVESGGGLVQAGGSLRLSCAASVSIIPHNTMGWYRQAPGKEMELVAAISRSGGSTYYADSVKGRFTISRDNGKKTVYLQMNSLKPEDTAVYYCSSDSYDVGHQVVSEERLYDYWGQGTQVTVSS"
Result: low polyreactivity

Request: Look up polyreactivity (PSR sort gate) for this sequence: "QVQLVESGGGLVQAGGSLRLSCAASGFIFRWYTLGWYRQAPGKERELVAAISRSGGSTYYADSVKGRFTISRDNAKNTVYLQMNSLKPEDTAVYYCNAYDHPIYRLDYWGQGTQVTVSS"
Result: high polyreactivity
